The measured values listed here are drawn from patent US10052330B2.

- ASSAY_TARGET: Syk kinase (Homo sapiens)
- TEST: Syk kinase enzymatic assay (Kit-Tyr 2 Peptide)
- Format: biochemical
Assign IC50 to each entry below.

stdin: Provide only the value of recorded IC50 for O=C(CF)N1CCN(c2ccc(-c3cc4nccnc4c(NCC4CNCCO4)n3)cc2)CC1 (centres unmarked)
stdout: 1 to 100 nM

stdin: For `O=C(CF)N1CCO[C@H](CNc2nc(-c3ccc(N4CCOCC4)cc3)cc3nccnc23)C1` , write its IC50.
stdout: 1 to 100 nM

###

Please respond with reported IC50 for every item in the list.
- System: RBL-2H3 cells
- TEST: IgE-induced Beta-hexosaminidase secretion in RBL-2H3 cells
- Assay type: cell-based
- CONDITION_LABEL: Rattus norvegicus, RBL-2H3, read-out: IC50, IgE-induced Beta-hexosaminidase secretion

stdin: Determine from records and report IC50 for O=C(CF)N1CCN(c2ccc(-c3cc4nccnc4c(NCC4CNCCO4)n3)cc2)CC1 (centres unmarked)
stdout: 1 to 100 nM

stdin: Output IC50 of `O=C(CF)N1CCO[C@H](CNc2nc(-c3ccc(N4CCOCC4)cc3)cc3nccnc23)C1`
stdout: 1 to 100 nM
